# system name: human 5-HT2A receptor (Homo sapiens, UniProt P28223)
# Construct: expressed in transfected cells; host or cells: CHO (CHO-5-HT2A cell line)
# Sequence (P28223 whole entry): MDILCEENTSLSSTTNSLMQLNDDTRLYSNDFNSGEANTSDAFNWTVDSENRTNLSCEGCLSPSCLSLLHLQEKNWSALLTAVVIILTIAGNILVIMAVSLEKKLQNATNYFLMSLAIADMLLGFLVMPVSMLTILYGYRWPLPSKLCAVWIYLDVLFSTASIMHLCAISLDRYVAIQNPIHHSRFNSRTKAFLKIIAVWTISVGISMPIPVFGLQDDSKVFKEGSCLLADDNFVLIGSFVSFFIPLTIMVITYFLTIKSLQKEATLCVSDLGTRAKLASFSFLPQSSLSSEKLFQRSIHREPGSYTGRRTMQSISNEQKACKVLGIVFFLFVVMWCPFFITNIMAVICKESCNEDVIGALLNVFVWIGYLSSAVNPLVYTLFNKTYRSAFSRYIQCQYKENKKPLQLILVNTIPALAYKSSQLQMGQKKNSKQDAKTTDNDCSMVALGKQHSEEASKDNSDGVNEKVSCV
# method notes: Competition binding to the human 5-HT2A receptor ([3H]ketanserin, CHO-5-HT2A membranes)
# condition notes: from Ki values, Table 1
measured endpoint: Selectivity 5-HT2A/2C (binding)

> print(dat)
                                    compound                measured.endpoint  reported.value
 1        COc1cccc(CNCCc2c[nH]c3ccccc23)c1OC  Selectivity 5-HT2A/2C (binding)            0.73
 2        COc1ccc(Br)cc1CNCCc1c[nH]c2ccccc12  Selectivity 5-HT2A/2C (binding)            0.12
 3          Clc1cccc(CNCCc2c[nH]c3ccccc23)c1  Selectivity 5-HT2A/2C (binding)            2.17
 4          COc1ccc2[nH]cc(CCNCc3ccccc3)c2c1  Selectivity 5-HT2A/2C (binding)            2.93
 5         Oc1cccc(Br)c1CNCCc1c[nH]c2ccccc12  Selectivity 5-HT2A/2C (binding)           0.067
 6  c1ccc(CNCCc2c[nH]c3ccccc23)cc1 [Compound 1, N-Benzyl-[2-(1H-indol-3-yl)ethyl]amine]  Selectivity 5-HT2A/2C (binding)            0.75
 7   COc1ccc(O)c(CNCCc2c[nH]c3ccc(OC)cc23)c1  Selectivity 5-HT2A/2C (binding)            0.30
 8        COc1ccc(Cl)cc1CNCCc1c[nH]c2ccccc12  Selectivity 5-HT2A/2C (binding)            1.35
 9          Oc1ccc(F)cc1CNCCc1c[nH]c2ccccc12  Selectivity 5-HT2A/2C (binding)            0.14
10         CCOc1ccc(CNCCc2c[nH]c3ccccc23)cc1  Selectivity 5-HT2A/2C (binding)            2.66
11        COc1ccc2[nH]cc(CCNCc3ccccc3Br)c2c1  Selectivity 5-HT2A/2C (binding)            5.66
12         COc1cccc(CNCCc2c[nH]c3ccccc23)c1O  Selectivity 5-HT2A/2C (binding)            0.58
13            Brc1ccccc1CNCCc1c[nH]c2ccccc12  Selectivity 5-HT2A/2C (binding)            1.74
14           Cc1cccc(CNCCc2c[nH]c3ccccc23)c1  Selectivity 5-HT2A/2C (binding)            5.10
15          Oc1c(F)cccc1CNCCc1c[nH]c2ccccc12  Selectivity 5-HT2A/2C (binding)            0.82
16           Cc1ccc(CNCCc2c[nH]c3ccccc23)cc1  Selectivity 5-HT2A/2C (binding)            0.81

----------
# system name: human 5-HT2A receptor (Homo sapiens, UniProt P28223)
# Construct: expressed in transfected cells; host or cells: CHO (CHO-5-HT2A cell line)
# method notes: Competition binding to the human 5-HT2A receptor ([3H]ketanserin, CHO-5-HT2A membranes)
# condition notes: human receptor, [3H]ketanserin displacement; no unit in the table, nM; read-out: 5-HT2A Ki (in parentheses) (converted)
API: label(entry) gives true if the entry's Ki is strictly smaller than 40 nM; on equality or larger values it gives false.

> print(dat)
                                 smiles.code  group
 1          COc1ccc2[nH]cc(CCNCc3ccccc3)c2c1   true
 2      COc1ccc2[nH]cc(CCNCc3cc(F)ccc3O)c2c1   true
 3         COc1ccc(F)cc1CNCCc1c[nH]c2ccccc12  false
 4        COc1ccc2[nH]cc(CCNCc3ccccc3Cl)c2c1   true
 5           Cc1cccc(CNCCc2c[nH]c3ccccc23)c1   true
 6      COc1ccc(OC)c(CNCCc2c[nH]c3ccccc23)c1  false
 7        COc1ccc2[nH]cc(CCNCc3ccccc3Br)c2c1   true
 8          Clc1cccc(CNCCc2c[nH]c3ccccc23)c1  false
 9         Oc1c(Br)cccc1CNCCc1c[nH]c2ccccc12   true
10          Oc1cccc(F)c1CNCCc1c[nH]c2ccccc12  false
11         Oc1ccc(Br)cc1CNCCc1c[nH]c2ccccc12  false
12      COc1ccc(CNCCc2c[nH]c3ccccc23)c(OC)c1  false
13  O=[N+]([O-])c1ccc(CNCCc2c[nH]c3ccccc23)cc1  false
14          Oc1c(F)cccc1CNCCc1c[nH]c2ccccc12  false
15        COc1ccc(Cl)cc1CNCCc1c[nH]c2ccccc12  false
16         COc1cccc(CNCCc2c[nH]c3ccccc23)c1O   true
17         Oc1cccc(Br)c1CNCCc1c[nH]c2ccccc12  false
18   COc1ccc(O)c(CNCCc2c[nH]c3ccc(OC)cc23)c1  false
19           Oc1cccc(CNCCc2c[nH]c3ccccc23)c1  false
20            Brc1ccccc1CNCCc1c[nH]c2ccccc12  false
21           Oc1ccc(CNCCc2c[nH]c3ccccc23)cc1  false

----------
# system name: human 5-HT2C receptor (Homo sapiens)
# Construct: expressed in transfected cells; host or cells: HeLa (HeLa-5-HT2C cell line)
# Sequence (P28335 33-458): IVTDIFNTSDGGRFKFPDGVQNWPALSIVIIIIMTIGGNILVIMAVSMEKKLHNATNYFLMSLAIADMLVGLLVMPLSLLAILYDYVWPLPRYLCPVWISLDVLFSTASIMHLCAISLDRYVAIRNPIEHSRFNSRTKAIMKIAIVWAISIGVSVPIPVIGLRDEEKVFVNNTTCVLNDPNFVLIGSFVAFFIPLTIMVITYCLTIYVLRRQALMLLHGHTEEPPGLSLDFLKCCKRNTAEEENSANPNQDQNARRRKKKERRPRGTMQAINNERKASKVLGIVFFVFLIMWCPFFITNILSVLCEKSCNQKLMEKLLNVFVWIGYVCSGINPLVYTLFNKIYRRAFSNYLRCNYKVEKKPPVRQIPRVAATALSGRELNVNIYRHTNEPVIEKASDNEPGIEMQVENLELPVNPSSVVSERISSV
# method notes: Competition binding to the human 5-HT2C receptor ([3H]mesulergine, HeLa-5-HT2C membranes)
# condition notes: human receptor, [3H]mesulergine displacement; no unit in the table, nM; read-out: 5-HT2C Ki (in parentheses) (converted)
A collection of molecules and their measured log10 Ki
measured endpoint: log10 Ki (log10 of the value in nM)

> print(dat)
                           smiles.code                           system.name  reported.value
 1     Cc1cccc(CNCCc2c[nH]c3ccccc23)c1  human 5-HT2C receptor (Homo sapiens)            1.87
 2  COc1ccc2[nH]cc(CCNCc3ccccc3Cl)c2c1  human 5-HT2C receptor (Homo sapiens)            1.87
 3      Brc1ccccc1CNCCc1c[nH]c2ccccc12  human 5-HT2C receptor (Homo sapiens)            2.53
 4  COc1ccc2[nH]cc(CCNCc3ccccc3Br)c2c1  human 5-HT2C receptor (Homo sapiens)            1.85
 5   Oc1c(Br)cccc1CNCCc1c[nH]c2ccccc12  human 5-HT2C receptor (Homo sapiens)            2.14
 6       Cc1ccccc1CNCCc1c[nH]c2ccccc12  human 5-HT2C receptor (Homo sapiens)            2.82
 7   Oc1cc(Br)ccc1CNCCc1c[nH]c2ccccc12  human 5-HT2C receptor (Homo sapiens)            2.78
 8    Oc1ccc(F)cc1CNCCc1c[nH]c2ccccc12  human 5-HT2C receptor (Homo sapiens)            2.02
 9     Oc1ccc(CNCCc2c[nH]c3ccccc23)cc1  human 5-HT2C receptor (Homo sapiens)            3.00
10    Clc1cccc(CNCCc2c[nH]c3ccccc23)c1  human 5-HT2C receptor (Homo sapiens)            1.99

Values from paper PMC6328172
